# Tested on: MCF7
# protocol summary: Cytotoxicity against human MCF7 cells assessed as reduction in cell viability at 1 mg/ml after 24 hrs by MTT assay
# Format: functional
Active and inactive are the calls of the source. The calls are words filed in the database; no cut-off is given here.
measured parameter: Activity

Recorded results for 5 compounds are shown here.
1) Cl[P@@]12=NP34=N[P@](Cl)(=NP(N5CCC6(CC5)OCCO6)(N5CCC6(CC5)OCCO6)=N1)Oc1ccccc1CN3CCCN4Cc1ccccc1O2 (mixture of isomers)
inactive
2) ClP12=NP34=NP(Cl)(=NP(N5CCC6(CC5)OCCO6)(N5CCC6(CC5)OCCO6)=N1)Oc1ccccc1CN3CCCN4Cc1ccccc1O2 (single isomer, unassigned)
inactive
3) ClP12=NP(N3CCC4(CC3)OCCO4)(N3CCC4(CC3)OCCO4)=N[P@@]3(Cl)=N[P@]4(=N1)N(CCN4Cc1ccccc1O3)Cc1ccccc1O2 (single isomer, unassigned)
inactive
4) ClP12=NP34=N[P@](Cl)(=NP(N5CCC6(CC5)OCCO6)(N5CCC6(CC5)OCCO6)=N1)Oc1ccccc1CN3CCN4Cc1ccccc1O2 (single isomer, unassigned)
inactive
5) Cl[P@@]12=NP34=N[P@](Cl)(=NP(N5CCCCC5)(N5CCCCC5)=N1)Oc1ccccc1CN3CCN4Cc1ccccc1O2 (mixture of isomers)
40%

Below: the item to evaluate.
// sample ClP12=NP34=N[P@](Cl)(=NP(N5CCCCC5)(N5CCCCC5)=N1)Oc1ccccc1CN3CCCN4Cc1ccccc1O2 (single isomer, unassigned) , its Activity was 40%
